Listing: kon of selected binders
target: T1, Rhesus CD137-Fc tagged protein (rhesus, UniProt H9Z8K9 24-186); experiment: BLI (Octet RED384), CD137-Fc on Protein G sensor, 1:1 model
T1 construct: extracellular domain; The Octet paragraph gives no catalogue number; also called rhCD137-Fc
Output spec: scalar in M⁻¹ s⁻¹, unitless text.

# input Consider the binder 003BB172-E01-14 (VHH, Human VH single domain antibody, monovalent) VHH: EVQLVESGGGVVQPGRSLRLSCAASGFTFSNYGMHWVRQAPGKGLEWVAVISNDGNTKTYADSVKGRFTISRDNSKNTLYLQMNSLRAEDTAVYYCAQDETTTVTASYYFDYWGQGTLVTVSS . State its measured kon.
# output 61300
